Please provide measured log10 MIC50 for the entries that follow.
- Test system: Candida albicans
- protocol_description: Antifungal activity against Fluconazole- resistant Candida albicans incubated for 24 hrs by microbroth dilution method
- Assay type: functional
A value of 2 here means MIC50 of 100 in µg/mL, since values are log10.

### Prompt Quick check: log10 MIC50 of CC[C@H](C)C(=O)O[C@@H]1[C@@H](C)[C@@]2(O)[C@@H](C(=O)C(CO)=C[C@]3(O)C(=O)C(C)=C[C@@H]23)[C@@H]2C(C)(C)[C@]12OC(=O)[C@@H](C)CC ?
### Response 1.18

### Prompt Quick check: log10 MIC50 of CCCCC/C=C\CCC(=O)O[C@@]12[C@H](OC(=O)[C@@H](C)CC)[C@@H](C)[C@@]3(O)[C@@H](C(=O)C(CO)=C[C@]4(O)C(=O)C(C)=C[C@@H]34)[C@@H]1C2(C)C ?
### Response 2.30

### Prompt Quick check: log10 MIC50 of CCCCCCCC(=O)O[C@@]12[C@H](OC(=O)[C@@H](C)CC)[C@@H](C)[C@@]3(O)[C@@H](C(=O)C(CO)=C[C@]4(O)C(=O)C(C)=C[C@@H]34)[C@@H]1C2(C)C ?
### Response 2.06

### Prompt Quick check: log10 MIC50 of CC/C=C\C/C=C\CCC(=O)O[C@@]12[C@H](OC(=O)[C@@H](C)CC)[C@@H](C)[C@@]3(O)[C@@H](C(=O)C(CO)=C[C@]4(O)C(=O)C(C)=C[C@@H]34)[C@@H]1C2(C)C ?
### Response 2.20

### Prompt Quick check: log10 MIC50 of CCCCCCCCCC(=O)O[C@@]12[C@H](OC(=O)[C@@H](C)CC)[C@@H](C)[C@@]3(O)[C@@H](C(=O)C(CO)=C[C@]4(O)C(=O)C(C)=C[C@@H]34)[C@@H]1C2(C)C ?
### Response 2.21

These entries and their values trace back to ChEMBL document CHEMBL5143576.
